Would you kindly list self-cleavage for each of these variants?
B1: HDV Ribozyme (parent)
chain: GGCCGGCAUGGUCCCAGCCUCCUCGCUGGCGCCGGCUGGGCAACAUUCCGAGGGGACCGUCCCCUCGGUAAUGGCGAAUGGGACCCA

Variants of: B1
method_summary: self-cleavage, relative activity (ratio to wild type); higher = more cleavage; co-transcriptional
Please respond with just the number, no unit label.

[in] Entry under review: GGCCGGCAUGGUACCAGCCUCCUCGCUGGCGCCGGCUGGGCAACAUUCCGAAGGGACCGUCCCCUCGGUAAUGGCGAAUGGGACCCA [C13A G52A] . Reported self-cleavage?
[out] 0.229

[in] Entry under review: GGCCGGCAUGGUCCGAGCCUCCUCGCUGGCGCCGGCUGGGCGACAUUCCGAGGGGACCGUCCCCUCGGUAAUGGCGAAUGGGACCCA [C15G A42G] . Reported self-cleavage?
[out] 0.166

[in] Entry under review: GGCCGGCAUCGUCCCAGCCUCCUCGCUGGCGCCGGCUGGGCAACAUUCCGAGGGGACCGUCCCCUCGGUAAUGGCGAAUCGGACCCA [G10C G80C] . Reported self-cleavage?
[out] 0.104

[in] Entry under review: GGCCGGCAUGGUACCAGCCUCCUCGCUGGCGCCGGCUGGGCAGCAUUCCGAGGGGACCGUCCCCUCGGUAAUGGCGAAUGGGACCCA [C13A A43G] . Reported self-cleavage?
[out] 0.0831

[in] Entry under review: GGCCGGCAUGGUCCCAGCCUCCUCGCUGGCGCCGGCUGGGCAACAUACCGAGGGGACCGUCCCCUCGGUAAAGGCGAAUGGGACCCA [U47A U72A] . Reported self-cleavage?
[out] 0.748

[in] Entry under review: GGCCGGCAUGGUCCCAGCCUCCUCCCUGGCGCCGGCUGGGCAACAUUCCGAGGGGACCGUCCCCUCGGUAAUGGCGAAUGCGACCCA [G25C G81C] . Reported self-cleavage?
[out] 0.0449

[in] Entry under review: GGCCGGCAUGGUCCCAGCCUCCUCGCUGGCGCCUGCUGGGCAACAUUCCGAGCGGACCGUCCCCUCGGUAAUGGCGAAUGGGACCCA [G34U G53C] . Reported self-cleavage?
[out] 0.136

[in] Entry under review: GGCCGGCAUGGUCCCAGCCUCCUCGCUGGCGCCGGCUGGGCAACAUUCCGAGGCGACCGUCCCCUCGGUAAUGGCGAAUGGGACCCC [G54C A87C] . Reported self-cleavage?
[out] 1.02

[in] Entry under review: GGCCGGCAUGGUCCCAGCCACCUCGCUGGCGCCGGCUGGGCAACAUUUCGAGGGGACCGUCCCCUCGGUAAUGGCGAAUGGGACCCA [U20A C48U] . Reported self-cleavage?
[out] 0

[in] Entry under review: GGCCGGCAUGGUCCCAGCCUCCUCGCUGGCGCCGGCUGGGCAACGUUCCGAGGGGACCGUCCCCUCGGUAAUGGCGAAUGGUACCCA [A45G G82U] . Reported self-cleavage?
[out] 0.475

[in] Entry under review: GGCCGGCAUGGUCCCAGCCUCCUCGCUGGCGCCGGCUGGGCAACAUUCCGAGGGGAACGUCCCCUCGGUAAUGGCGAAUAGGACCCA [C57A G80A] . Reported self-cleavage?
[out] 0.218

[in] Entry under review: GGCCGGCAUGGUCCCAGCCUCCUCGCUGGCGCCGGCUGGGCAACAUUCCGAGGGGACCGUCCCGUCGGUAAUGGCGAAUGGGACCCC [C64G A87C] . Reported self-cleavage?
[out] 0.778

[in] Entry under review: GGCUGGCAUGGUCCCAGCCUCCUCGCUGGCGCCGGCUGGGCAACAUUCCGAGGGGACCGACCCCUCGGUAAUGGCGAAUGGGACCCA [C4U U60A] . Reported self-cleavage?
[out] 0.831

[in] Entry under review: GGCCGGCAUGGUCCCAGCCUCCUCGCUGGCGCCGGCUGGGCAACAUACCGAGGGGACCGUCCACUCGGUAAUGGCGAAUGGGACCCA [U47A C63A] . Reported self-cleavage?
[out] 0.96

[in] Entry under review: GGCCGGCAUGGUCCCAGCUUCCCCGCUGGCGCCGGCUGGGCAACAUUCCGAGGGGACCGUCCCCUCGGUAAUGGCGAAUGGGACCCA [C19U U23C] . Reported self-cleavage?
[out] 0

[in] Entry under review: GGCCUGCAUGGGCCCAGCCUCCUCGCUGGCGCCGGCUGGGCAACAUUCCGAGGGGACCGUCCCCUCGGUAAUGGCGAAUGGGACCCA [G5U U12G] . Reported self-cleavage?
[out] 0.356

[in] Entry under review: GGCCGGCAUGGUCCCAGCCUCCUCGCUGGCGCCGGCUGGGCAACCUUCCGAGGGGACCGUCCCCUCGGUAAUGGCUAAUGGGACCCA [A45C G76U] . Reported self-cleavage?
[out] 1.01

[in] Entry under review: CGCCGGCAUGGUCCCAGCCUCCUCGCUGGCGCCGGCUGGGCAACAUUCCGAGGGGACCGUCCCCUCGGUAAUGGCGAAUGGGACCCC [G1C A87C] . Reported self-cleavage?
[out] 0.156

[in] Entry under review: GGCCGGCAUGGUGCCAGCCUCCUCGCUGGCGGCGGCUGGGCAACAUUCCGAGGGGACCGUCCCCUCGGUAAUGGCGAAUGGGACCCA [C13G C32G] . Reported self-cleavage?
[out] 0

[in] Entry under review: GGCCGGCAUGGUCCCAGCCUCCUCGCUGCCGCCGGCAGGGCAACAUUCCGAGGGGACCGUCCCCUCGGUAAUGGCGAAUGGGACCCA [G29C U37A] . Reported self-cleavage?
[out] 0.201

[in] Entry under review: GGCCGGCAUGGUCCCAGCCUCCUCACUGGCGCCGGCUGGGCCACAUUCCGAGGGGACCGUCCCCUCGGUAAUGGCGAAUGGGACCCA [G25A A42C] . Reported self-cleavage?
[out] 0.0462

[in] Entry under review: GGCCGGCAUGGUCCCAGUCUCCUCGCUGGCGCCGGCUGGGCAACAUUCCGAGGGGACCGUCCCCUCGCUAAUGGCGAAUGGGACCCA [C18U G68C] . Reported self-cleavage?
[out] 0.544
